Data credit: patent US20100028259A1

- Test system: MDCK-hOCT1 cells
- Assay notes: MTT drug sensitivity assay in MDCK-hOCT1 cells
- Format: cell-based, canine
- Measurement parameters: co-incubation with disopyramide 150 μM; read-out: IC50 in MDCK-hOCT1, disopyramide-treated
pIC50: −log10 of the molar value.
Readout label: pIC50

                            compound_string  experimental_system  readout_label  result_number
0  O=C1[O][Pt]2([NH][C@@H]3CCCC[C@H]3[NH]2)[O]C1=O     MDCK-hOCT1 cells          pIC50           4.64

---

- Test system: HEK-MOCK cells
- Assay notes: MTT drug sensitivity assay in HEK-MOCK cells (control of HEK-hOCT2)
- Format: cell-based, human
- Measurement parameters: drug exposure 72 hour; Table 2; read-out: IC50 HEK-MOCK
Readout label: IC50 (nM)

In [3]: df
Out[3]:
                            compound_string  experimental_system  unit_symbol  result_number
0  O=C1[O][Pt]2([NH][C@@H]3CCCC[C@H]3[NH]2)[O]C1=O       HEK-MOCK cells           nM            930

---

- Tested on: DLD
- Assay notes: MTT drug sensitivity, colon cancer cell line DLD
- Type: cell-based, human
- Measurement parameters: absence of cimetidine, read-out: IC50 Control
Readout label: IC50 (µM)

>>> print(df.to_string())
                                   compound  result_number
0              N.N.[Cl][Pt][Cl] [cisplatin]           18.4
1  O=C1[O][Pt]2([NH][C@@H]3CCCC[C@H]3[NH]2)[O]C1=O           10.6

---

- Tested on: MDCK-MOCK cells
- Assay notes: MTT drug sensitivity assay in MDCK-MOCK cells
- Format: cell-based, canine
- Measurement parameters: co-incubation with disopyramide 150 μM; read-out: IC50 in MDCK-MOCK, disopyramide-treated
pIC50: −log10 of the molar value.
Readout label: pIC50

>>> df
                                   molecule  experimental_system  result_number
0  O=C1[O][Pt]2([NH][C@@H]3CCCC[C@H]3[NH]2)[O]C1=O [oxaliplatin]      MDCK-MOCK cells           4.49

---

- Test system: RKO
- Assay notes: MTT drug sensitivity, colon cancer cell line RKO
- Assay type: cell-based, human
- Measurement parameters: cimetidine 1.5 mM, read-out: IC50 Cimetidine-treated
Below, each entry is listed alongside its reported IC50.
Readout label: IC50 (µM)

In [3]: df
Out[3]:
                                   compound  experimental_system  unit_symbol  result_number
0              N.N.[Cl][Pt][Cl] [cisplatin]                  RKO           µM           12.5
1  O=C1[O][Pt]2([NH][C@@H]3CCCC[C@H]3[NH]2)[O]C1=O [oxaliplatin]                  RKO           µM            9.7

---

- Tested on: MDCK-hOCT1 cells
- Assay notes: MTT drug sensitivity assay in MDCK-hOCT1 cells
- Format: cell-based, canine
- Measurement parameters: SAR study Table 4, 7 hours of drug exposure; read-out: IC50 MDCK-hOCT1
pIC50: −log10 of the molar value.
Given measured pIC50, output 1 if it is greater than or equal to 6 and 0 if not.

>>> print(df.to_string())
                                   compound  experimental_system  cat
0              N.N.[Cl][Pt][Cl] [cisplatin]     MDCK-hOCT1 cells    0
1  [Cl][Pt]1([Cl])[NH]C2CCCCC2[NH]1 [[Pt(S,S-DACH)Cl2]]     MDCK-hOCT1 cells    1
2         NCCN.[Cl][Pt][Cl] [[Pt(Cl2)(en)]]     MDCK-hOCT1 cells    0
3  O=C1[O][Pt]2([NH][C@@H]3CCCC[C@H]3[NH]2)[O]C1=O [oxaliplatin]     MDCK-hOCT1 cells    1
4  N.NC1CCCCC1.[Cl][Pt][Cl] [cis-[Pt(NH3)(Cy)Cl2]]     MDCK-hOCT1 cells    1
5  N.N.O=C([O-])C1(C(=O)[O-])CCC1.[Pt+2] [carboplatin]     MDCK-hOCT1 cells    0
6  [Cl][Pt]1([Cl])[NH]C2CCCCC2[NH]1 [[Pt(R,R-DACH)Cl2]]     MDCK-hOCT1 cells    1

---

pIC50: recorded values
- System: six colon cancer cell lines
- Assay notes: MTT drug sensitivity, summary over the six colon cancer cell lines
- Format: cell-based, human
- Measurement parameters: cimetidine 1.5 mM; read-out: mean±SE of IC50 in the six cell lines, in the presence of cimetidine
pIC50: −log10 of the molar value.
Readout label: pIC50

In [3]: df
Out[3]:
                                   molecule  result_number
0  O=C1[O][Pt]2([NH][C@@H]3CCCC[C@H]3[NH]2)[O]C1=O           4.54
1              N.N.[Cl][Pt][Cl] [cisplatin]           4.71

---

- Test system: HEK-MOCK cells
- Assay notes: MTT drug sensitivity assay in HEK-MOCK cells (control of HEK-hOCT2)
- Format: cell-based, human
- Measurement parameters: drug exposure 7 hour; Table 2; read-out: IC50 HEK-MOCK
pIC50: −log10 of the molar value.
Measured pIC50 accompanies every entry in the list below.
Readout label: pIC50

>>> df
                                   molecule  experimental_system  result_number
0     N.N.O=C([O-])C1(C(=O)[O-])CCC1.[Pt+2]       HEK-MOCK cells           3.96
1  O=C1[O][Pt]2([NH][C@@H]3CCCC[C@H]3[NH]2)[O]C1=O       HEK-MOCK cells           5.52
2              N.N.[Cl][Pt][Cl] [cisplatin]       HEK-MOCK cells           5.53

---

- Tested on: HEK-hOCT2 cells
- Assay notes: MTT drug sensitivity assay in HEK-hOCT2 cells
- Format: cell-based, human
- Measurement parameters: drug exposure 24 hour; read-out: IC50 HEK-hOCT2
pIC50: −log10 of the molar value.
Readout label: pIC50

In [3]: df
Out[3]:
                            compound_string  experimental_system  result_number
0  O=C1[O][Pt]2([NH][C@@H]3CCCC[C@H]3[NH]2)[O]C1=O      HEK-hOCT2 cells           7.70
